measurement.label: Emission maximum of aggregation-induced fluorescence (nm)
Lab book: enter the figure in nm, no units written.

[in] # query: Emission maximum of aggregation-induced fluorescence of entry Ac-SYSGYSGDTSYSSYGQS-NH2 [L1-L2]
[out] 400
